meta.source: patent US11530244B2

target: human PCSK9 / human LDLR EGFa domain interaction (Homo sapiens (Human)); assay: TR-FRET assay of inhibition of the PCSK9-LDLR protein-protein interaction; type: binding; conditions: TR-FRET, 20 nM human PCSK9, 20 nM human LDLR EGFa domain, 2 hours room temperature; read-out: IC50
Sequence (Q8NBP7 153-692): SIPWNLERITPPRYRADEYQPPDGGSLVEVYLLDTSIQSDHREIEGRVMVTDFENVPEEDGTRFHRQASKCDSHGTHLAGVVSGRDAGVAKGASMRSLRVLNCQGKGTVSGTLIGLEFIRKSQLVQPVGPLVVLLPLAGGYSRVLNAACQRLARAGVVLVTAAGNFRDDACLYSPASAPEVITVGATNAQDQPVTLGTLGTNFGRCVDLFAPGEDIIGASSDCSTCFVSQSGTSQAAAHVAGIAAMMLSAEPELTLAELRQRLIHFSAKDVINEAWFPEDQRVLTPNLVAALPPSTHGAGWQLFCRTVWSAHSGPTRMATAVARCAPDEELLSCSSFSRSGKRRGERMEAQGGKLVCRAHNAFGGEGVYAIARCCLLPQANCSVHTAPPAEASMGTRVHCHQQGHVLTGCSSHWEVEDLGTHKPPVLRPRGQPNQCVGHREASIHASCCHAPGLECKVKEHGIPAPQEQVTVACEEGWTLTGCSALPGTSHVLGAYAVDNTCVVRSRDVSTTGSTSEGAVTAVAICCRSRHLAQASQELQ
Sequence (Q8NBP7 31-152 partner): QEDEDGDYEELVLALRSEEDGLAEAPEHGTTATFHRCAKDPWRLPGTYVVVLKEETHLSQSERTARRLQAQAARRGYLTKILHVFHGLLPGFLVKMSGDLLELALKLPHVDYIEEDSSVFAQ
pIC50: −log10 of the molar value. Starred links: 1 amine or outer side, 2 acyl side, 3 side chain; linkers in the order of their positions; H or OH if unused. Positions of bridges follow the written chain, without caps; N, C: chain ends. Non-standard residues stand in square brackets, D forms with d. Residues, ends and D or L forms follow the SMILES beside them. Phe(4-COOH) = N[C@@H](Cc1ccc(C(=O)O)cc1)C(=O)O; Trp(5-F) = N[C@@H](Cc1c[nH]c2ccc(F)cc12)C(=O)O; Pro(cis-4-F) = O=C(O)[C@@H]1C[C@H](F)CN1; mXylylene = c1cc(C[*:1])cc(C[*:2])c1; aThr = C[C@H](O)[C@H](N)C(=O)O; hLys = NCCCCC[C@H](N)C(=O)O; αMeP = C[C@@]1(C(=O)O)CCCN1; Mpa = O=C(O)CCS
parameter: pIC50

Some solved entries appear below for comparison.
>  <compound>
NCCCC[C@@H]1NC(=O)CCSCc2cccc(c2)CSC[C@@H](C(N)=O)NC(=O)[C@@H]2CCCN2C(=O)[C@@H](Cc2ccc(O)cc2)NC(=O)[C@H](Cc2cnc[nH]2)NC(=O)[C@H](CC(=O)O)NC(=O)[C@H](Cc2c[nH]c3ccc(F)cc23)NC(=O)[C@H](Cc2c[nH]c3ccc(F)cc23)NC(=O)CNC1=O [Compound 164] ([Mpa]KG[Trp(5-F)][Trp(5-F)]DH[dY]PC-NH2; linker 1-10 via mXylylene)

>  <parameter>
pIC50

>  <recordedMeasurement>
4.30 to 4.68

$$$$
>  <compound>
COc1ccc(C[C@@H]2NC(=O)[C@H](Cc3cnc[nH]3)NC(=O)[C@H](CC(=O)O)NC(=O)[C@H](Cc3c[nH]c4ccc(F)cc34)NC(=O)[C@H](Cc3c[nH]c4ccc(F)cc34)NC(=O)[C@@H](C)NC(=O)[C@H](CCCCN)NC(=O)[C@@H](NC(C)=O)CCCCCNC(=O)c3ccc(cc3)C[C@@H](C(N)=O)NC(=O)[C@]3(C)CCCN3C2=O)cc1 [Compound 393] (Ac-[hLys]K[dA][Trp(5-F)][Trp(5-F)]DHY(Me)[αMeP][Phe(4-COOH)]-NH2; lactam 1-10)

>  <parameter>
pIC50

>  <recordedMeasurement>
7.00 to 10.00

$$$$

Now examine the next entry.
What value of pIC50 on human PCSK9 / human LDLR EGFa domain interaction (Homo sapiens (Human)) does COc1ccc(C[C@@H]2NC(=O)[C@H]([C@H](C)OC)NC(=O)[C@@H]3C[C@H](F)CN3C(=O)[C@H](Cc3c[nH]c4ccc(F)cc34)NC(=O)[C@H](Cc3c[nH]c4ccc(F)cc34)NC(=O)[C@@H](C)NC(=O)[C@H](CCCCN)NC(=O)CCSCc3cccc(c3)CSC[C@@H](C(N)=O)NC(=O)[C@]3(C)CCCN3C2=O)cc1 [Compound 072] ([Mpa]K[dA][Trp(5-F)][Trp(5-F)][Pro(cis-4-F)][aThr](Me)Y(Me)[αMeP]C-NH2; linker 1-10 via mXylylene) have? 6.00 to 7.00
